src = a melting point compilation (Tetko et al.; mined from patent text by program, amines drawn as free bases though some values may be those of a salt)

Consider the following compounds; for each one, report its melting point.

- compound: "O=C(O)c1cccc(C(=O)C=Cc2ccc(Cl)c(Cl)c2)c1O"
  reading: "> 250 °C"
- compound: "CCCCCCCCC1C=C(Oc2ccc(C(=O)O)o2)C=C2N=C3CCCCC3=C21 (stereo not given)"
  reading: "142 to 144 °C"
- compound: "O=CNc1ccccc1CCO"
  reading: "49 to 54 °C"

Report melting point for each item below.
1. O=C1NC(=O)c2c1c(-c1ccccc1Cl)cc1[nH]c3ccc(CCO)cc3c21
2. CCOc1nn(Cc2ccc(OCc3nc(-c4ccco4)oc3C)nc2)cc1CC(=O)O

-- reply
1: 253 to 257 °C; 2: 155 to 156 °C
